Could you please report measured inhibition (%) for the items listed next?
# Test system: PC-12 cells
# procedure_text: Cell death protective effect in adrenal cells against Erastin, glutamate and RSL3 (LDH)
# Type: cell-based, rat
# stated_conditions: PC-12, Glutamate 10 mM, compound 0.1 μM, 24 hours
# Protocol: In order to identify the protective effect on adrenal cells, PC-12 cells were divided into 96-well plates by 1×10^4 and cultured for 18 to 24 hours. […] In order to identify the protective effect of each compound, the degree of LDH extracellular secretion was measured using cytotoxicity LDH assay kit [Dojindo; CK12]. […]
Give the value in % but do not write % after it.

Form field: reported inhibition (%) of CCOCCOCc1cc(NC2CCCC2)c2[nH]c(-c3ccccc3)cc2c1 [Example 36] 95

inhibition (%) lookup needed for COCCOCc1cc(NC2CCOCC2)c2[nH]c(-c3ccccc3)cc2c1 [Example 1] , thanks. 98

Can you look up the measured inhibition (%) of CCOC(=O)c1ccc(NC2CCCCC2)c(N)c1 [Ferrostatin-1, reference compound] for me? 98

Looking for the measured inhibition (%) of COCCOCc1cc(NC2CCNCC2)c2[nH]c(-c3ccccc3)cc2c1 [Example 64] , can you help? 97

Please give the measured inhibition (%) for this compound: COCCOCCOCc1cc(NC2CCCC2)c2[nH]c(-c3ccccc3)cc2c1 [Example 39] 97

Give the measured inhibition (%) of COCCOCc1cc(NC2CCOCC2)c2[nH]cc(C)c2c1 [Example 50] . 25

Suppose we examine the compound COCCOCc1cc(NCc2ccncc2)c2[nH]c(-c3ccccc3)cc2c1 [Example 45] ; what inhibition (%) value has been reported? 100

Reported inhibition (%) for COCCOCc1cc(NC2CCN(C(C)=O)CC2)c2[nH]c(-c3ccccc3)cc2c1 [Example 30] : what is it? 95

// lookup inhibition (%) for COCCOCc1cc(NCC2CCOCC2)c2[nH]c(-c3ccccc3)cc2c1 [Example 4] 96

---

# procedure_text: Plasma and brain drug concentration after oral administration (HPLC-MS/MS)
# Type: in vivo
# stated_conditions: ICR, mouse, plasma, po, 10 mg/kg, 2 hr, read-out: drug concentration in plasma
result_type: concentration at 2 h (ng/mL)
Give the value, in units of ng/mL, as a plain number.

Value lookup for concentration at 2 h; key = COCCOCc1cc(NC2CCCC2)c2[nH]c(-c3ccccc3)cc2c1 398

Please report the recorded concentration at 2 h for OCc1cc(NC2CCCC2)c2[nH]c(-c3ccccc3)cc2c1 [Comparative Example, reference compound] . 1120

---

# System: H9C2 cells
# procedure_text: Cell death protective effect in cardiac myocytes against Erastin, glutamate and RSL3 (LDH)
# Format: cell-based, rat
# stated_conditions: H9C2, RSL3 0.5 μM, compound 0.1 μM, 24 hours
result_type: inhibition (%)
Form entry: value (%) — number only.

Endpoint output: inhibition (%) of COCCOCc1cc(NC2CCOCC2)c2[nH]cc(C)c2c1 . Value? 7

Give its inhibition (%) value. Item: COCCOCc1cc(NCC2CCOCC2)c2[nH]c(-c3ccccc3)cc2c1 97

Could you share which inhibition (%) value was measured for COCCOCc1cc(NCc2ccncc2)c2[nH]c(-c3ccccc3)cc2c1 ? 99

Would you mind telling me what inhibition (%) value was observed for CCOCCOCc1cc(NC2CCCC2)c2[nH]c(-c3ccccc3)cc2c1 ? 98

I am curious: what inhibition (%) value has been reported for COCCOCCOCc1cc(NC2CCCC2)c2[nH]c(-c3ccccc3)cc2c1 ? 96

---

Provide the recorded inhibition (%) for the entries that follow.
# Test system: H9C2 cells
# procedure_text: Cell death protective effect in cardiac myocytes against Erastin, glutamate and RSL3 (LDH)
# Assay type: cell-based, rat
# stated_conditions: H9C2, Glutamate 25 mM, compound 0.1 μM, 24 hours
Answer format: numeric, % implied, no suffix.

// query inhibition (%) value for entry COCCOCCOCc1cc(NC2CCCC2)c2[nH]c(-c3ccccc3)cc2c1 [Example 39] 96

Would you kindly share the measured inhibition (%) for CCOCCOCc1cc(NC2CCCC2)c2[nH]c(-c3ccccc3)cc2c1 [Example 36] ? 99

inhibition (%) for COCCOCc1cc(NCc2ccncc2)c2[nH]c(-c3ccccc3)cc2c1 [Example 45] ? 98

Query: inhibition (%); subject: COCCOCc1cc(NC2CCOCC2)c2[nH]cc(C)c2c1 [Example 50] 0

GET /values?readout=inhibition (%)&item= COCCOCc1cc(NC2CCNCC2)c2[nH]c(-c3ccccc3)cc2c1 [Example 64] 97

Look up inhibition (%) for this compound: CCOC(=O)c1ccc(NC2CCCCC2)c(N)c1 [Ferrostatin-1, reference compound] 98

Could you tell me which inhibition (%) is on file for COCCOCc1cc(NC2CCOCC2)c2[nH]c(-c3ccccc3)cc2c1 [Example 1] ? 96

# input compound: COCCOCc1cc(NC2CCN(C(C)=O)CC2)c2[nH]c(-c3ccccc3)cc2c1 [Example 30] ; wanted: its inhibition (%) 90

Name the reported inhibition (%) value associated with the compound COCCOCc1cc(NCC2CCOCC2)c2[nH]c(-c3ccccc3)cc2c1 [Example 4] 97

---

Task for the reader: assign each of the following compounds its reported inhibition (%).
# Test system: NRK-49F cells
# procedure_text: Cell death protective effect in renal fibroblasts against Erastin, glutamate and RSL3 (LDH)
# Type: cell-based, rat
# stated_conditions: Glutamate 75 mM, compound 0.1 μM, 24 hours
# Method: In order to identify the protective effect on renal fibroblasts, NRK-49F cells were divided into 96-well plates by 1×10^4 and cultured for 18 to 24 hours. The compounds of Examples were diluted to final concentrations of 0.1 and 1 μM, treated in each well, and incubated for 15 to 20 minutes. […] In order to identify the protective effect of each compound, the degree of LDH extracellular secretion was measured using cytotoxicity LDH assay kit [Dojindo; CK12]. […]
Give your result in % as a bare value.

For the compound CCOCCOCc1cc(NC2CCCC2)c2[nH]c(-c3ccccc3)cc2c1 [Example 36] , what inhibition (%) is on record? 100

Entry under review: COCCOCc1cc(NCC2CCOCC2)c2[nH]c(-c3ccccc3)cc2c1 [Example 4] . Reported inhibition (%)? 99

// lookup inhibition (%) for COCCOCc1cc(NC2CCN(C(C)=O)CC2)c2[nH]c(-c3ccccc3)cc2c1 [Example 30] 97

Which inhibition (%) is reported for this compound? COCCOCc1cc(NC2CCOCC2)c2[nH]c(-c3ccccc3)cc2c1 [Example 1] 100

# query: inhibition (%) of entry COCCOCc1cc(NC2CCOCC2)c2[nH]cc(C)c2c1 [Example 50] 4

May I ask what inhibition (%) has been recorded for COCCOCc1cc(NCc2ccncc2)c2[nH]c(-c3ccccc3)cc2c1 [Example 45] ? 100

For COCCOCCOCc1cc(NC2CCCC2)c2[nH]c(-c3ccccc3)cc2c1 [Example 39] , what is its reported inhibition (%)? 100

For COCCOCc1cc(NC2CCNCC2)c2[nH]c(-c3ccccc3)cc2c1 [Example 64] , what is its reported inhibition (%)? 7

Given CCOC(=O)c1ccc(NC2CCCCC2)c(N)c1 [Ferrostatin-1, reference compound] , state its recorded inhibition (%). 95

---

# procedure_text: Plasma and brain drug concentration after oral administration (HPLC-MS/MS)
# Type: in vivo
# stated_conditions: ICR, mouse, plasma, po, 10 mg/kg, 24 hr, read-out: drug concentration in plasma
result_type: concentration at 24 h (ng/mL)
Output spec: scalar in ng/mL, unitless text.

Name the reported concentration at 24 h value associated with the compound OCc1cc(NC2CCCC2)c2[nH]c(-c3ccccc3)cc2c1 [Comparative Example, reference compound] 0

Return reported concentration at 24 h; argument: COCCOCc1cc(NC2CCCC2)c2[nH]c(-c3ccccc3)cc2c1 5.6

---

# procedure_text: Plasma and brain drug concentration after oral administration (HPLC-MS/MS)
# Assay type: in vivo
# stated_conditions: brain/plasma; ICR mouse, oral 10 mg/kg, 2 hr; read-out: brain-plasma drug concentration ratio (B/P ratio)
result_type: Kp at 2 h
Keep the answer to the number alone.

Reported Kp at 2 h for COCCOCc1cc(NC2CCCC2)c2[nH]c(-c3ccccc3)cc2c1 : what is it? 1.71

Bench note: what Kp at 2 h did OCc1cc(NC2CCCC2)c2[nH]c(-c3ccccc3)cc2c1 [Comparative Example, reference compound] show? 0.08

---

# System: NRK-49F cells
# procedure_text: Cell death protective effect in renal fibroblasts against Erastin, glutamate and RSL3 (LDH)
# Assay type: cell-based, rat
# stated_conditions: RSL3 3 μM, compound 0.1 μM, 24 hours
Kindly supply the reported inhibition (%) values for the records listed here.
Write the answer as a number in %, unit excluded.

Dear colleague, I am looking for the recorded inhibition (%) of the following compound: COCCOCCOCc1cc(NC2CCCC2)c2[nH]c(-c3ccccc3)cc2c1 98

I am curious: what inhibition (%) value has been reported for COCCOCc1cc(NC2CCN(C(C)=O)CC2)c2[nH]c(-c3ccccc3)cc2c1 ? 52

State the recorded inhibition (%) for this entry: CCOC(=O)c1ccc(NC2CCCCC2)c(N)c1 [Ferrostatin-1, reference compound] 94

Look at this compound and give its reported inhibition (%). COCCOCc1cc(NCc2ccncc2)c2[nH]c(-c3ccccc3)cc2c1 99

For CCOCCOCc1cc(NC2CCCC2)c2[nH]c(-c3ccccc3)cc2c1 , what is its reported inhibition (%)? 98

Given the entry COCCOCc1cc(NC2CCOCC2)c2[nH]cc(C)c2c1 , report its measured inhibition (%). 16

Would you mind telling me what inhibition (%) value was observed for COCCOCc1cc(NC2CCNCC2)c2[nH]c(-c3ccccc3)cc2c1 ? 70

Recorded inhibition (%) for COCCOCc1cc(NC2CCOCC2)c2[nH]c(-c3ccccc3)cc2c1 , please? 99

// lookup inhibition (%) for COCCOCc1cc(NCC2CCOCC2)c2[nH]c(-c3ccccc3)cc2c1 98

The reported measurements were obtained from patent US20250122155A1.
